# System: HIV in the HTLV-1 transformed cell line MT-4
# Assay Details: organism not typed
# Format: cell-based
# Measurement Parameters: MT4, 96 h, MT-4 cells; luciferase/cell titer glo readout after 96 hours; 10 point dose response
Measurement Kind: pIC50
Keep in mind that pIC50 stands for -log10 of concentration in molar terms.

Prompt line: Reported pIC50 for Cc1ccc(-c2c(C)c3c(c(C)c2[C@H](OC(C)(C)C)C(=O)O)CN(C(=O)CC2CCCCC2)C3)cc1 : what is it?
Response line: 7.77

Prompt line: For the compound shown here, Cc1c(-c2c(C)c3c(c(C)c2[C@H](OC(C)(C)C)C(=O)O)CN(c2nc4cc(F)ccc4o2)C3)cc(F)c2c1CCCO2 (atropisomer, axis not shown; (M)) , give the reported pIC50.
Response line: 6.18

Prompt line: What does the record list as pIC50 for Cc1c(-c2c(C)c3c(c(C)c2[C@H](OC(C)(C)C)C(=O)O)CN(c2nnc(Cc4ccc(F)c(F)c4)o2)C3)cc(F)c2c1CCCO2 (atropisomer, axis not shown; (M)) ?
Response line: 7.20

Prompt line: Requested field: pIC50. Item: Cc1ccc(-c2c(C)c3c(c(C)c2[C@H](OC(C)(C)C)C(=O)O)CN(C(=O)c2cc(F)c(Cl)c(Cl)c2)C3)cc1
Response line: 7.85

Prompt line: Given the entry Cc1ccc(-c2c(C)c3c(c(C)c2[C@H](OC(C)(C)C)C(=O)O)CN(CCCc2cccc(F)c2)C3)cc1 , report its measured pIC50.
Response line: 5.91

Prompt line: Name the reported pIC50 value associated with the compound Cc1ccc(-c2c(C)c3c(c(C)c2[C@H](OC(C)(C)C)C(=O)O)CN(C(=O)N2C[C@H](C)OC[C@H]2C)C3)cc1
Response line: 7.74

Prompt line: GET /values?readout=pIC50&item= Cc1c2c(c(C)c([C@H](OC(C)(C)C)C(=O)O)c1-c1ccc3c(c1)CCCO3)CN(C(=O)N1CCCCC1)C2
Response line: 8.52

Prompt line: // lookup pIC50 for Cc1c(-c2c(C)c3c(c(C)c2[C@H](OC(C)(C)C)C(=O)O)CN(C(=O)c2cc(F)c(F)c(F)c2)C3)cc(F)c2c1CCCO2 (atropisomer, axis not shown; (M))
Response line: 8.52

Prompt line: Looking for the measured pIC50 of Cc1c(-c2c(C)c3c(c(C)c2[C@H](OC(C)(C)C)C(=O)O)CN(C(=O)Nc2cccc(F)c2)C3)cc(F)c2c1CCCO2 (atropisomer, axis not shown; (M)) , can you help?
Response line: 7.85

Prompt line: Please look up its pIC50: Cc1ccc(-c2c(C)c3c(c(C)c2[C@H](OC(C)(C)C)C(=O)O)CN(C(=O)c2ccc(C(C)(C)C)cc2)C3)cc1
Response line: 7.36

Prompt line: What pIC50 value was documented for this compound, Cc1ccc(C)c(C(=O)N2Cc3c(C)c(-c4cc(F)c5c(c4C)CCCO5)c([C@H](OC(C)(C)C)C(=O)O)c(C)c3C2)c1 (atropisomer, axis not shown; (M)) ?
Response line: 8.52

Prompt line: Which value of pIC50 has been reported for Cc1ccc(-c2c(C)c3c(c(C)c2[C@H](OC(C)(C)C)C(=O)O)CN(C(=O)N2CC4CCC(C2)O4)C3)cc1 in the records?
Response line: 7.47
